I'd be grateful if you could share measured logP for these entries.
method.description: Lipophilicity, log P of the compound
Type: physicochemical
condition.summary: octanol/water
Returns: the value as a bare number; no unit string appended.

Q: Given O=C(CC1c2ccccc2-c2ccccc21)N[C@H](Cc1cc2ccc(F)cc2[nH]1)C(=O)O , state its recorded logP.
A: 3.6

Q: Given O=C(Cc1cccc2ccccc12)N[C@H](Cc1cc2ccc(F)cc2[nH]1)C(=O)O , state its recorded logP.
A: 2.49

Q: Given O=C(CCc1c(Cl)cccc1Cl)N[C@H](Cc1cc2ccc(F)cc2[nH]1)C(=O)O , state its recorded logP.
A: 3.5

Q: Given O=C(N[C@H](Cc1cc2ccc(F)cc2[nH]1)C(=O)O)c1ccc2ccccc2c1 , state its recorded logP.
A: 2.59
